ASSAYED SYSTEM: adenosine A2B receptor (Homo sapiens (Human))
Sequence (P29275 whole entry): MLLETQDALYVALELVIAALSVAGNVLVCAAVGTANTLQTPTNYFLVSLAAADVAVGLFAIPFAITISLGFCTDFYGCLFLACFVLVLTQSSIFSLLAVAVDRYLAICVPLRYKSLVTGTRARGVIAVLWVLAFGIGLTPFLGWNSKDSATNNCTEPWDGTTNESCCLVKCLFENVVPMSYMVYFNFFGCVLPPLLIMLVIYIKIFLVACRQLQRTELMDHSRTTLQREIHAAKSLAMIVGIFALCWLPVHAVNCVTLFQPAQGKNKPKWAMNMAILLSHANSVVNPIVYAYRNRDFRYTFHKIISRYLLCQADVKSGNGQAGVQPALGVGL
ASSAY: Adenosine receptor activity assay (Table 1), A2B activity
Type: biochemical
CONDITION: read-out: Ave A2B cAMP IC50
pIC50: −log10 of the molar value.
Reported pIC50 values for a set of compounds

// worked examples, pIC50 included
CCC(Nc1nc(C(=O)N2CCCC2)c2sccc2n1)c1cccnc1 (stereo not shown) : 7.30 to 8.00
CO[C@H]1CCN(C(=O)c2nc(N[C@@H](C)c3ccccn3)nc3ccsc23)C1 : 7.30 to 8.00
Cc1cc2nc(N[C@@H](C)c3cccnc3)nc(C(=O)N3CC[C@H](CO)C3)c2s1 : > 8.00

Request: Name the reported pIC50 value associated with the compound CC(=O)NCC1CN(C(=O)c2nc(N[C@@H](C)c3cncc(F)c3)nc3ccsc23)C1
Response: > 8.00

Request: Name the reported pIC50 value associated with the compound CS(=O)(=O)[C@@H]1CCN(C(=O)c2nc(NCc3cncc(F)c3)nc3ccsc23)C1
Response: 6.30 to 7.00

Request: Name the reported pIC50 value associated with the compound COC1CN(C(=O)c2nc(N[C@@H](C)c3cccnc3)nc3ccsc23)C1
Response: > 8.00

Request: Name the reported pIC50 value associated with the compound C[C@H](Nc1nc(C(=O)N2CC[C@@H](NC(=O)OC(C)(C)C)C2)c2sccc2n1)c1cccnc1
Response: < 6.30
